Tested on: MOLT-4 leukemia
Test: NCI tumour cell line growth inhibition, 48 h
Recorded TGI for the following molecules
METRIC_NAME: TGI

- MOLECULE: "COc1c(O)cc(/C=C/c2cc(O)cc3c2[C@@]2(C(=O)O3)c3c(O)cc(O)cc3OC2c2cccc(O)c2)cc1O (some centres undefined)"
  METRIC_NAME: "TGI"
  RECORDED_MEASUREMENT: "11 µM"
- MOLECULE: "O=c1c2cc(Br)ccc2oc2ccc(Br)cc12"
  METRIC_NAME: "TGI"
  RECORDED_MEASUREMENT: "> 100 µM"
- MOLECULE: "Cc1ccc(S(=O)(=O)N/N=C2\\C(=O)C3CC2C(Cl)C3Cl)cc1 (centres undefined)"
  METRIC_NAME: "TGI"
  RECORDED_MEASUREMENT: "> 100 µM"
- MOLECULE: "C/C(=N\\NC(N)=S)c1ccc2c(c1)OCO2"
  METRIC_NAME: "TGI"
  RECORDED_MEASUREMENT: "> 100 µM"

* * *

Test system: HCT-15 colon
Experiment: NCI tumour cell line growth inhibition, 48 h

- MOLECULE: "COC(=O)C1=CN(CC2=CC(=O)C(C)=CC2=O)C=C(C(=O)OC)C1c1cccc(OC)c1OC"
  GI50: "18.4 µM"
- MOLECULE: "COc1ccc(C2=NNC(c3ccc(-c4ccc(OC)cc4[N+](=O)[O-])o3)C2)cc1 (stereo unspecified)"
  GI50: "31 µM"
- MOLECULE: "CCCCCC(=O)N1c2ccccc2NC2=C(C(=O)CC(c3ccc(OC)c(OC)c3)C2)C1c1ccc(C(F)(F)F)cc1 (stereo unspecified)"
  GI50: "> 100 µM"
- MOLECULE: "[N-]=[N+]=Nc1ncc(-c2ccc(C(F)(F)F)cc2)c(NC2CCCCCC2)n1"
  GI50: "> 10 µM"
- MOLECULE: "O=C(Oc1ccccc1)c1cc(O)c(O)c(O)c1"
  GI50: "5.98 µM"
- MOLECULE: "CC(=O)OCC(=O)[C@@]1(O)[C@H](C)C[C@H]2[C@@H]3C=C(C)C4=Cc5c(cnn5-c5ccc(F)cc5)C[C@]4(C)[C@H]3[C@@H](O)C[C@@]21C"
  GI50: "1.45 µM"

* * *

System: MCF7 breast
Experiment: NCI tumour cell line growth inhibition, 48 h; in the data active = GI50 below about 0.43 µM; inactive = the rest
Labels: class 1 (active), class 0 (inactive)

- MOLECULE: "C[C@]12CC[C@H]3[C@@H](CC=C4C[C@@H](O)CC[C@@]43C)[C@@H]1C/C(=C\\c1cccc(OCCN3CCOCC3)c1)[C@@H]2O"
  CAT: "class 0"
- MOLECULE: "Cc1ccc(NC(=O)c2ccnc(C(F)(F)F)c2)cc1-c1cc(OCCO)nc(N2CCOCC2)c1"
  CAT: "class 0"
- MOLECULE: "[N-]=[N+]=Nc1ncc(-c2ccc(C(F)(F)F)cc2)c(NC2CCCCCC2)n1"
  CAT: "class 0"
- MOLECULE: "CCN(CC)c1ccc(/C=N/NC(=O)c2ccc(Nc3ccnc(C(F)(F)F)c3)cc2)c(O)c1"
  CAT: "class 1"
- MOLECULE: "S=C(Nc1ccccc1)c1ccccn1"
  CAT: "class 0"
- MOLECULE: "c1ccc(-c2nc(Nc3ccc(-c4nc5ccccc5[nH]4)cc3)nc(N3CCOCC3)n2)cc1"
  CAT: "class 0"
- MOLECULE: "N#Cc1c(NC(=O)c2cccs2)[n+]([O-])c2ccccc2[n+]1[O-]"
  CAT: "class 0"
- MOLECULE: "COc1nccc(-c2c(-c3ccc(F)cc3)ncn2C2CCC(O)CC2)n1 (centres undefined)"
  CAT: "class 0"
- MOLECULE: "O=C(O)C(/C=C/c1ccco1)=N\\Nc1nc(-c2ccc(Cl)cc2)cs1"
  CAT: "class 0"

* * *

Test system: ACHN renal
Experiment: NCI tumour cell line growth inhibition, 48 h; in the data active = GI50 below about 0.43 µM; inactive = the rest
*1 amine or outer side, *2 acyl side, *3 side chain or, on linkers, in order; H or OH if unused. Where a SMILES comes first, the peptide text is derived from it. Bridges are numbered along the chain shown (N, C = ends). [ ]: non-standard residue; d: D form. ξ: configuration not given here. X4 = CCC(C)C(N[*:1])C(O)CC(=O)O[C@H](C(=O)C(C)C(=O)[*:2])C(C)C; NMeY = CN[C@@H](Cc1ccc(O)cc1)C(=O)O; X9 = O=C([C@@H]1CC(O)CN1[*:1])[*:2]; ξNMeL = CNC(CC(C)C)C(=O)O; ξT = CC(O)C(N)C(=O)O
Outcome codes: active, inactive

- COMPOUND: "CCC(C)C1NC(=O)C(NC(=O)C(CC(C)C)N(C)C(=O)[C@@H]2CC(O)CN2)C(C)OC(=O)[C@H](Cc2ccc(OC)cc2)N(C)C(=O)[C@@H]2CCCN2C(=O)[C@H](CC(C)C)NC(=O)C(C)C(=O)[C@H](C(C)C)OC(=O)CC1O (stereo partly drawn) (H-[X9][ξNMeL][ξT][X4]LP[NMeY](Me); ester 3-C)"
  CAT: "active"
- COMPOUND: "N#Cc1nc(-c2cccc(Br)c2)cc(-c2ccc(Nc3nc(N4CCCCC4)nc(N4CCCCC4)n3)cc2)c1N"
  CAT: "inactive"
- COMPOUND: "N#Cc1c(NC(=O)c2cccs2)[n+]([O-])c2ccccc2[n+]1[O-]"
  CAT: "inactive"
- COMPOUND: "O=C(CNC(=O)c1cccc2ccccc12)Nc1ccccc1Oc1cccc(O)c1"
  CAT: "inactive"
- COMPOUND: "COC(=O)Nc1ccc2ccc3c(NC(=O)OC)ccc4ccc1c2c43 (tested in a mixture with another compound)"
  CAT: "inactive"
- COMPOUND: "Nc1nc(-n2cccn2)nc(-n2cccn2)c1Br"
  CAT: "inactive"
- COMPOUND: "COc1cc(C)cc2c1OC(c1ccccc1)CC2=O (stereo not drawn)"
  CAT: "inactive"
- COMPOUND: "CN(C)c1cccc2[nH]c(-c3[nH]ncc3Nc3ccnc(N)n3)nc12"
  CAT: "active"

* * *

System: M14 melanoma
Assay: NCI tumour cell line growth inhibition, 48 h
Some compounds, each annotated with its measured TGI.

- COMPOUND: "Cc1cccc2c3c(sc12)C(c1ccc(Cl)cc1)C(C#N)=C(/N=C/c1ccc(Cl)cc1)O3 (stereo unspecified)"
  UNITS_OF_MEASURE: "µM"
  CENSORING_OPERATOR: ">"
  TGI: 52.6
- COMPOUND: "COC(=O)c1c2c(c(C)[n+]([O-])c1C)C(=O)C=C(NCc1ccc(Cl)cc1)C2=O"
  UNITS_OF_MEASURE: "µM"
  CENSORING_OPERATOR: "="
  TGI: 1.68
- COMPOUND: "CC[C@@]1(O)C(=O)OCc2c1c(Cl)c1n(c2=O)Cc2cc3ccccc3nc2-1"
  UNITS_OF_MEASURE: "µM"
  CENSORING_OPERATOR: "="
  TGI: 9.04
- COMPOUND: "COc1ccc(NC2=C(Sc3nc(C)cc(C)n3)C(=O)N(Cc3ccccc3)C2=O)cc1Cl"
  UNITS_OF_MEASURE: "µM"
  CENSORING_OPERATOR: ">"
  TGI: 160
- COMPOUND: "COc1n[n+]([O-])c(C)cc1[N+](=O)[O-]"
  UNITS_OF_MEASURE: "µM"
  CENSORING_OPERATOR: "="
  TGI: 18.3
- COMPOUND: "COc1ccc2[nH]c3c(cnn4cnnc34)c2c1"
  UNITS_OF_MEASURE: "µM"
  CENSORING_OPERATOR: ">"
  TGI: 100

* * *

Documented TGI across a set of compounds
Test system: SK-OV-3 ovarian
Experiment: NCI tumour cell line growth inhibition, 48 h

- COMPOUND: "Cc1ccc(NC(=O)c2ccnc(C(F)(F)F)c2)cc1-c1cc(OCCO)nc(N2CCOCC2)c1"
  TGI: "> 100 µM"
- COMPOUND: "CC(=O)/C=C1/c2ccccc2N(C(C)=O)C1O (stereo not drawn)"
  TGI: "> 100 µM"
- COMPOUND: "Cc1ccc(S(=O)(=O)N(c2ccccc2F)C2CCCCC2O)cc1 (stereo not drawn)"
  TGI: "64 µM"
- COMPOUND: "COc1ccc2c(OC)c3ccoc3nc2c1O"
  TGI: "> 100 µM"
- COMPOUND: "Cc1c(-c2ccccc2)c(-c2ccc(OCCN(C)C)cc2)n2ccccc12"
  TGI: "30.2 µM"
- COMPOUND: "COC(=O)c1nc(-c2ccc(Cl)c(Cl)c2)nc2ccccc12"
  TGI: "31.2 µM"
- COMPOUND: "COC(=O)/C=C/c1cc(OC)c2c(c1)C(C(=O)OC)C(c1ccc(OC)c(OC)c1)O2 (stereo not drawn)"
  TGI: "> 100 µM"
- COMPOUND: "O=C(Oc1ccccc1)c1cc(O)c(O)c(O)c1"
  TGI: "> 100 µM"
- COMPOUND: "Cn1cnc2c(F)c(Nc3ccc(Br)cc3Cl)c(C(=O)NOCCO)cc21"
  TGI: "> 100 µM"
- COMPOUND: "O=C(O)C(/C=C/c1ccco1)=N\\Nc1nc(-c2ccc(Cl)cc2)cs1"
  TGI: "> 50 µM"
- COMPOUND: "CC1(C)CCSC(/C=C/c2ccccc2)=N1"
  TGI: "> 100 µM"
- COMPOUND: "O=C(CCN(CCO)CCO)Nc1ccc2c(c1)C(=O)c1ccc(NC(=O)CCN(CCO)CCO)cc1C2=O"
  TGI: "> 100 µM"
- COMPOUND: "CCOC(=O)c1sc(=S)c2c(C(=O)c3ccccc3)c(C(=O)c3ccccc3)sc2c1C(=O)OCC"
  TGI: "> 100 µM"
- COMPOUND: "CCOP(=O)(CS(C)=O)O[C@@H]1C[C@H](C)CC[C@H]1C(C)C (stereo partly drawn)"
  TGI: "19.9 µM"
- COMPOUND: "COc1cc2c(cc1OC)-c1c(cnn1C1OC(COC(C)=O)C(OC(C)=O)C(OC(C)=O)C1OC(C)=O)CC2 (stereo not drawn)"
  TGI: "> 100 µM"
- COMPOUND: "COc1ccc2oc(=N)c(C(N)=S)cc2c1"
  TGI: "> 100 µM"
- COMPOUND: "C/C(=N\\NC(N)=S)c1ccc2c(c1)OCO2"
  TGI: "> 100 µM"
- COMPOUND: "C1CSCC2(COC2)CS1"
  TGI: "> 100 µM"
- COMPOUND: "COc1ccc(C2CC(=O)Nc3c2c(C)nn3-c2nc3ccccc3[nH]2)cc1 (stereo not drawn)"
  TGI: "7.83 µM"
- COMPOUND: "O=C(O)Cc1cc(=O)oc2cc(O)c(Cl)cc12"
  TGI: "> 100 µM"
- COMPOUND: "CC1CN=C(NCc2ccccc2)S1 (stereo not drawn)"
  TGI: "> 100 µM"
- COMPOUND: "Cc1cccc(C(C)O)n1 (stereo not drawn)"
  TGI: "> 100 µM"
- COMPOUND: "COc1cc2c(/C=C3/C(=O)Nc4ccccc43)c(Cl)n(Cc3ccccc3)c2cc1C"
  TGI: "> 100 µM"
- COMPOUND: "CCOC(=O)/C(C#N)=C(O)/C(=C/c1ccccc1Cl)NC(=O)c1ccccc1"
  TGI: "> 100 µM"
- COMPOUND: "CC(=O)OCC(=O)[C@@]1(O)[C@H](C)C[C@H]2[C@@H]3C=C(C)C4=Cc5c(cnn5-c5ccc(F)cc5)C[C@]4(C)[C@H]3[C@@H](O)C[C@@]21C"
  TGI: "4.57 µM"
- COMPOUND: "CCNC(=O)C(O)C1(O)CCC2[C@@H]3CCC4=CC(=O)C=C[C@]4(C)C3[C@@H](O)C[C@@]21C (stereo partly drawn)"
  TGI: "> 100 µM"
- COMPOUND: "COc1ccc(/C=C/C(=O)NCC(NC(=O)/C=C/c2ccc(OC)c(OC)c2)C(=O)O)cc1OC (stereo not drawn)"
  TGI: "> 100 µM"
- COMPOUND: "CCOc1ccc(NCC(=O)N2CC(=O)Nc3ccccc32)cc1"
  TGI: "> 100 µM"
- COMPOUND: "CC1=NC(=Cc2ccc(Cl)cc2)C(=O)N1n1c(-c2ccccc2)nc2ccccc2c1=O"
  TGI: "> 100 µM"
- COMPOUND: "O=C1C(NCCO)=C(N2CC2)C(=O)C(NCCO)=C1N1CC1"
  TGI: "> 88 µM"
- COMPOUND: "Cc1cccc2c3c(sc12)C(c1ccc(Cl)cc1)C(C#N)=C(/N=C/c1ccc(Cl)cc1)O3 (stereo not drawn)"
  TGI: "40 µM"
- COMPOUND: "CC(=NNC(=S)Nc1ccccc1C)c1cccc(C(C)=NNC(=S)Nc2ccccc2C)n1"
  TGI: "> 100 µM"
- COMPOUND: "FC(F)(F)c1ccc2c(c1)N(CCCN1CCN(C3CC3)CC1)c1ccccc1S2"
  TGI: "26.6 µM"
- COMPOUND: "C[N+](C)(C)CC1Cc2ccccc2C1=O (stereo not drawn)"
  TGI: "> 10 µM"
- COMPOUND: "COc1ccccc1NC(=O)C(C#N)=C(SC)SC"
  TGI: "> 100 µM"
- COMPOUND: "CCCCCCC(N)(CCCCCC)C(=O)Nn1c(C)ccc1C"
  TGI: "> 100 µM"
- COMPOUND: "CC1CCCc2c(-c3ccc(Cl)cc3)nc(N)c(C#N)c21 (stereo not drawn)"
  TGI: "83.6 µM"
- COMPOUND: "O=C1N=C2c3c(sc4c3CCCC4)N=CN2C1N=Nc1ccc(Cl)cc1 (stereo not drawn)"
  TGI: "97.6 µM"
- COMPOUND: "O=C1/C(=C/c2cccc([N+](=O)[O-])c2)CCCc2ccccc21"
  TGI: "63.8 µM"
- COMPOUND: "COc1ccc(C2(CN(C)C)COc3cc(OC)c(OC)cc3C2=O)cc1OC (stereo not drawn)"
  TGI: "> 100 µM"
- COMPOUND: "CNC(=O)c1cc(Oc2ccc3nc(NC(=O)Nc4ccc(Cl)c(Cl)c4)sc3c2)ccn1"
  TGI: "4.09 µM"
- COMPOUND: "Cc1ccc(S(=O)(=O)N/N=C2\\C(=O)C3CC2C(Cl)C3Cl)cc1 (stereo not drawn)"
  TGI: "> 100 µM"
- COMPOUND: "S=C(Nc1ccccc1)c1ccccn1"
  TGI: "> 100 µM"
